// reported %-inhibition of HIPK1 for each item listed
- target: panel of more than 300 wild-type and mutant kinases (313 kinase panel) (Homo sapiens, UniProt Q86Z02)
- protocol.text: Kinase profiling in a biochemical assay panel (mobility shift assays and ELISA), %-inhibition at 1 μM; selectivity entropy
- run.conditions: kinase HIPK1; compound at 1 μM
measured.attribute: %-inhibition of HIPK1 (%)

{"columns": ["molecule", "measured.result"],
 "data": [
  ["C[C@@H](Oc1cc(-c2cnn(C3CCNCC3)c2)cnc1N)c1c(Cl)ccc(F)c1Cl", -7],
  ["CC(C)(C)c1nc(-c2cccc(NS(=O)(=O)c3c(F)cccc3F)c2F)c(-c2ccnc(N)n2)s1", 70],
  ["CNC(=O)c1cc(Oc2ccc(NC(=O)Nc3ccc(Cl)c(C(F)(F)F)c3)c(F)c2)ccn1", 47],
  ["CO[C@H]1C[C@@H]2CC[C@@H](C)[C@@](O)(O2)C(=O)C(=O)N2CCCC[C@H]2C(=O)O[C@H]([C@H](C)C[C@@H]2CC[C@@H](OCCO)[C@H](OC)C2)CC(=O)[C@H](C)/C=C(\\C)[C@@H](O)[C@@H](OC)C(=O)[C@H](C)C[C@H](C)/C=C/C=C/C=C/1C", -6]
]}

---

- target: panel of more than 300 wild-type and mutant kinases (313 kinase panel) (Homo sapiens)
- protocol.text: Kinase profiling in a biochemical assay panel (mobility shift assays and ELISA), %-inhibition at 1 μM; selectivity entropy
- run.conditions: kinase p38α; 1 μM
// reported %-inhibition of p38α for each item listed

{"columns": ["molecule", "target", "%-inhibition of p38α [%]"],
 "data": [
  ["CO[C@H]1C[C@@H]2CC[C@@H](C)[C@@](O)(O2)C(=O)C(=O)N2CCCC[C@H]2C(=O)O[C@H]([C@H](C)C[C@@H]2CC[C@@H](OCCO)[C@H](OC)C2)CC(=O)[C@H](C)/C=C(\\C)[C@@H](O)[C@@H](OC)C(=O)[C@H](C)C[C@H](C)/C=C/C=C/C=C/1C", "panel of more than 300 wild-type and mutant kinases (313 kinase panel) (Homo sapiens)", -4.27],
  ["COc1cc2c(Nc3ccc(Br)cc3F)ncnc2cc1OCC1CCN(C)CC1", "panel of more than 300 wild-type and mutant kinases (313 kinase panel) (Homo sapiens)", 18],
  ["COc1cc(Nc2c(C#N)cnc3cc(OCCCN4CCN(C)CC4)c(OC)cc23)c(Cl)cc1Cl", "panel of more than 300 wild-type and mutant kinases (313 kinase panel) (Homo sapiens)", 9],
  ["Cc1ccc(C(=O)Nc2ccc(CN3CCN(C)CC3)c(C(F)(F)F)c2)cc1C#Cc1cnc2cccnn12", "panel of more than 300 wild-type and mutant kinases (313 kinase panel) (Homo sapiens)", 101],
  ["Cc1nc(Nc2ncc(C(=O)Nc3c(C)cccc3Cl)s2)cc(N2CCN(CCO)CC2)n1", "panel of more than 300 wild-type and mutant kinases (313 kinase panel) (Homo sapiens)", 91],
  ["CO[C@H]1C[C@@H]2CC[C@@H](C)[C@@](O)(O2)C(=O)C(=O)N2CCCC[C@H]2C(=O)O[C@H]([C@H](C)C[C@@H]2CC[C@@H](OC(=O)C(C)(CO)CO)[C@H](OC)C2)CC(=O)[C@H](C)/C=C(\\C)[C@@H](O)[C@@H](OC)C(=O)[C@H](C)C[C@H](C)/C=C/C=C/C=C/1C", "panel of more than 300 wild-type and mutant kinases (313 kinase panel) (Homo sapiens)", -5],
  ["Cc1ccc(Nc2nccc(N(C)c3ccc4c(C)n(C)nc4c3)n2)cc1S(N)(=O)=O", "panel of more than 300 wild-type and mutant kinases (313 kinase panel) (Homo sapiens)", 10],
  ["CS(=O)(=O)CCNCc1ccc(-c2ccc3ncnc(Nc4ccc(OCc5cccc(F)c5)c(Cl)c4)c3c2)o1", "panel of more than 300 wild-type and mutant kinases (313 kinase panel) (Homo sapiens)", -3],
  ["CNC(=O)c1cc(Oc2ccc(NC(=O)Nc3ccc(Cl)c(C(F)(F)F)c3)c(F)c2)ccn1", "panel of more than 300 wild-type and mutant kinases (313 kinase panel) (Homo sapiens)", 94]
]}

---

// reported %-inhibition of TSSK2 for each item listed
- target: panel of more than 300 wild-type and mutant kinases (313 kinase panel) (Homo sapiens, UniProt Q96PF2)
- Sequence (Q96PF2 whole entry, change not shown): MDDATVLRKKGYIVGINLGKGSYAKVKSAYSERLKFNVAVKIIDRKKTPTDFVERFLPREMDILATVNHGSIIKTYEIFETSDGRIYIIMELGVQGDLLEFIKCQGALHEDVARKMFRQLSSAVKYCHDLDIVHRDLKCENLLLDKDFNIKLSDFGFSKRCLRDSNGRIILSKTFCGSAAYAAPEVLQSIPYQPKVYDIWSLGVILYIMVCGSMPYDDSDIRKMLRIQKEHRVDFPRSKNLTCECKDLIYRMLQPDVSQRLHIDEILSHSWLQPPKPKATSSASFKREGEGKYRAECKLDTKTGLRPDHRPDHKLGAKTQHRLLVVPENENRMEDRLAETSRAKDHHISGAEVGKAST
- protocol.text: Kinase profiling in a biochemical assay panel (mobility shift assays and ELISA), %-inhibition at 1 μM; selectivity entropy
- run.conditions: kinase TSSK2; 1 μM

{"columns": ["compound", "measure.unit", "%-inhibition of TSSK2"],
 "data": [
  ["COc1cc2nccc(Oc3ccc(NC(=O)C4(C(=O)Nc5ccc(F)cc5)CC4)cc3)c2cc1OC [cabozantinib]", "%", 0.418],
  ["COc1cc(Nc2c(C#N)cnc3cc(OCCCN4CCN(C)CC4)c(OC)cc23)c(Cl)cc1Cl", "%", -9],
  ["Cc1cn(-c2cc(NC(=O)c3ccc(C)c(Nc4nccc(-c5cccnc5)n4)c3)cc(C(F)(F)F)c2)cn1", "%", 2.58],
  ["CC(C)(C)c1nc(-c2cccc(NS(=O)(=O)c3c(F)cccc3F)c2F)c(-c2ccnc(N)n2)s1", "%", -1.73]
]}

---

- target: panel of more than 300 wild-type and mutant kinases (313 kinase panel) (Homo sapiens, UniProt O75116)
- protocol.text: Kinase profiling in a biochemical assay panel (mobility shift assays and ELISA), %-inhibition at 1 μM; selectivity entropy
- run.conditions: kinase ROCK2; 1 μM
measured.attribute: %-inhibition of ROCK2 (%)

{"columns": ["molecule", "measured.result"],
 "data": [
  ["N#CC[C@H](C1CCCC1)n1cc(-c2ncnc3[nH]ccc23)cn1 [ruxolitinib]", 87],
  ["C[C@@H](Oc1cc(-c2cnn(C3CCNCC3)c2)cnc1N)c1c(Cl)ccc(F)c1Cl [crizotinib]", 4.25],
  ["Cc1ccc(Nc2nccc(N(C)c3ccc4c(C)n(C)nc4c3)n2)cc1S(N)(=O)=O [pazopanib]", -0.78],
  ["COc1cc2nccc(Oc3ccc(NC(=O)C4(C(=O)Nc5ccc(F)cc5)CC4)cc3)c2cc1OC [cabozantinib]", 15],
  ["Cc1cn(-c2cc(NC(=O)c3ccc(C)c(Nc4nccc(-c5cccnc5)n4)c3)cc(C(F)(F)F)c2)cn1 [nilotinib]", -27],
  ["CCCS(=O)(=O)Nc1ccc(F)c(C(=O)c2c[nH]c3ncc(-c4ccc(Cl)cc4)cc23)c1F [vemurafenib]", -0.177]
]}

---

- target: panel of more than 300 wild-type and mutant kinases (313 kinase panel) (Homo sapiens, UniProt P54762)
- protocol.text: Kinase profiling in a biochemical assay panel (mobility shift assays and ELISA), %-inhibition at 1 μM; selectivity entropy
- run.conditions: kinase EPHB1; compound at 1 μM
// reported %-inhibition of EPHB1 for each item listed

{"columns": ["molecule", "measure.unit", "%-inhibition of EPHB1"],
 "data": [
  ["CCCS(=O)(=O)Nc1ccc(F)c(C(=O)c2c[nH]c3ncc(-c4ccc(Cl)cc4)cc23)c1F", "%", -1.63],
  ["Cc1cn(-c2cc(NC(=O)c3ccc(C)c(Nc4nccc(-c5cccnc5)n4)c3)cc(C(F)(F)F)c2)cn1", "%", 72],
  ["CNC(=O)c1cc(Oc2ccc(NC(=O)Nc3ccc(Cl)c(C(F)(F)F)c3)c(F)c2)ccn1", "%", 76],
  ["O=S(=O)(c1cccc2cnccc12)N1CCCNCC1", "%", -7],
  ["C[C@@H](Oc1cc(-c2cnn(C3CCNCC3)c2)cnc1N)c1c(Cl)ccc(F)c1Cl", "%", 93],
  ["CO[C@H]1C[C@@H]2CC[C@@H](C)[C@@](O)(O2)C(=O)C(=O)N2CCCC[C@H]2C(=O)O[C@H]([C@H](C)C[C@@H]2CC[C@@H](OC(=O)C(C)(CO)CO)[C@H](OC)C2)CC(=O)[C@H](C)/C=C(\\C)[C@@H](O)[C@@H](OC)C(=O)[C@H](C)C[C@H](C)/C=C/C=C/C=C/1C", "%", -1.86]
]}

---

- target: panel of more than 300 wild-type and mutant kinases (313 kinase panel) (Homo sapiens, UniProt Q15208)
- Sequence (Q15208 whole entry, change not shown): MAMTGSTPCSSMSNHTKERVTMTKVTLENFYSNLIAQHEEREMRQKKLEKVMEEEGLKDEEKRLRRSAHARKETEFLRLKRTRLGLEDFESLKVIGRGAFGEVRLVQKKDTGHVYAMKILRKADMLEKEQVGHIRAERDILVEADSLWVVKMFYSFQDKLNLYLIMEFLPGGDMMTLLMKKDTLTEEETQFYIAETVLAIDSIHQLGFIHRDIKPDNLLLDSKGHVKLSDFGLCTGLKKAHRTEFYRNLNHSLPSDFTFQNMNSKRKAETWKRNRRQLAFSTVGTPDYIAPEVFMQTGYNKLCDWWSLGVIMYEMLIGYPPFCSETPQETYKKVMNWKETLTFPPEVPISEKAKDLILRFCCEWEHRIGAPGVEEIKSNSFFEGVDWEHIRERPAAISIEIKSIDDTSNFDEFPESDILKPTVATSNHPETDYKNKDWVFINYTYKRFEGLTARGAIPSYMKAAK
- protocol.text: Kinase profiling in a biochemical assay panel (mobility shift assays and ELISA), %-inhibition at 1 μM; selectivity entropy
- run.conditions: kinase NDR1; 1 μM
// reported %-inhibition of NDR1 for each item listed

{"columns": ["compound", "measure.unit", "%-inhibition of NDR1"],
 "data": [
  ["CO[C@H]1C[C@@H]2CC[C@@H](C)[C@@](O)(O2)C(=O)C(=O)N2CCCC[C@H]2C(=O)O[C@H]([C@H](C)C[C@@H]2CC[C@@H](OC(=O)C(C)(CO)CO)[C@H](OC)C2)CC(=O)[C@H](C)/C=C(\\C)[C@@H](O)[C@@H](OC)C(=O)[C@H](C)C[C@H](C)/C=C/C=C/C=C/1C", "%", -4.55],
  ["CNC(=O)c1cc(Oc2ccc(NC(=O)Nc3ccc(Cl)c(C(F)(F)F)c3)c(F)c2)ccn1", "%", -9],
  ["CCN(CC)CCNC(=O)c1c(C)[nH]c(/C=C2\\C(=O)Nc3ccc(F)cc32)c1C", "%", 9],
  ["COc1cc2c(Nc3ccc(Br)cc3F)ncnc2cc1OCC1CCN(C)CC1", "%", -9],
  ["CC(C)(C)c1nc(-c2cccc(NS(=O)(=O)c3c(F)cccc3F)c2F)c(-c2ccnc(N)n2)s1", "%", -0.891],
  ["COc1cc2nccc(Oc3ccc(NC(=O)C4(C(=O)Nc5ccc(F)cc5)CC4)cc3)c2cc1OC [cabozantinib]", "%", -5.4]
]}
